- Test system: Jar
- testName: Confirmatory qHTS for gynecologic anti-cancer compounds from libraries of approved drugs and bioactive compounds; further: nearly all actives have a fitted effect of over 55% in size
- runConditions: gynecologic cancer cell panel viability, ATPlite luminescence, 48 h; series mostly up to 57.6 µM
Records with an inconclusive call do not appear. The source made the active and inactive calls. The call rests on the fitted dose curve; in most records, active means well fitted cell-killing curve with a large enough effect; inconclusive means small, poorly fitted or top-dose-only effect, or effect the other way; inactive means no such curve, though single readings can be large or run the other way.
Choose the fitting class; nothing outside class 1 for active, class 0 for inactive is accepted.

## Input Fill in: this test's call for CNC1CCC(N(Cc2cccc(-c3ccncc3)c2)C(=O)c2sc3ccccc3c2Cl)CC1 (stereo not given) is ___
## Output class 1

## Input Also need `O=C(Nc1cccnc1)N1CCC(Cc2cccc(Oc3ccc(C(F)(F)F)cn3)c2)CC1` , thanks.
## Output class 1

## Input Now consider `CCN1C[C@H](C)n2c(c(O)c3c(=O)n(Cc4ccc(F)c(Cl)c4)nc(C(=O)NC)c32)C1=O` .
## Output class 0

## Input Repeat with `CCCCc1oc2ccc(NS(C)(=O)=O)cc2c1C(=O)c1ccc(OCCCN(CCCC)CCCC)cc1`
## Output class 1

## Input Next record, please: `COc1cc2c(NC3CCN(C(C)C)CC3)nc(C3CCCCC3)nc2cc1OCCCN1CCCC1`
## Output class 1

Where do the numbers come from? From PubChem BioAssay AID1345085.
